Ref: patent US6506765B2

target: Adrenergic α2A (Homo sapiens, UniProt P08913); experiment: radioligand binding assay, Adrenergic α2A
Sequence (P08913 whole entry): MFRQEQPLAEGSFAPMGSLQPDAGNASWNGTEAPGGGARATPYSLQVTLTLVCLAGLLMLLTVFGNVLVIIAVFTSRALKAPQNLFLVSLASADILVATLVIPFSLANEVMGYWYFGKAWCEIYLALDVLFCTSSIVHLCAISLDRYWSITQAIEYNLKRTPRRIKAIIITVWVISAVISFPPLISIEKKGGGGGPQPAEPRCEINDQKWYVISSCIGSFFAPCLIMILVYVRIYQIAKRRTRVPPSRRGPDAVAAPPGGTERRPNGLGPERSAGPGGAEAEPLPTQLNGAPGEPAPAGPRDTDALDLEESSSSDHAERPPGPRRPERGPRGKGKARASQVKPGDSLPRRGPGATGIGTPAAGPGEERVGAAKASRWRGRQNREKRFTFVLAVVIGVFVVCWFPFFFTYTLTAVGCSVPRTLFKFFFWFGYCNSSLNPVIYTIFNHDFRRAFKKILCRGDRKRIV
MEASUREMENT_KIND: Ki (nM)
Report the value in nM with no unit label.

Exercise: Lookup: Ki / Adrenergic α2A (Homo sapiens, UniProt P08913) / CN1CCc2cccc3c2[C@H]1Cc1ccc(O)c(O)c1-3
Solution: 71

====

MEASUREMENT_KIND: Ki (nM)
Report the value in nM with no unit label.

Exercise: Lookup: Ki / Serotonin 5-HT6 (Homo sapiens) / Oc1ccc2c(c1O)-c1cccc3c1C(C2)NCC3 (centres unmarked) [Norapomorphine, norapomorphine]
Solution: 1670

Exercise: Lookup: Ki / Serotonin 5-HT6 (Homo sapiens) / CN1CCc2cccc3c2[C@H]1Cc1ccc(O)c(O)c1-3 [Apomorphine]
Solution: 206
